# measuredOn: PfProRS (Plasmodium falciparum)
# Construct: B2, AA7–746 (minus 6 amino acids, or 99% of the ORF); made in house; host or cells: E. coli BL21(DE3)R3 Rosetta Oxford
# experimentSummary: ATP consumption assay with proline or ATP varied (competition)
# Type: biochemical
# setupConditions: IC50 of TCMDC-124506 as a function of proline, Pro=120
resultType: pIC50
pIC50 (log units): -log10 of the concentration in mol/L.

Lab request: please report pIC50 under test system PfProRS (Plasmodium falciparum) for Cn1nc(C(F)(F)F)c(-c2ccc(F)cc2)c1NC(=O)Nc1ccc(F)cc1 [TCMDC-124506] 3.89

---

# System: Plasmodium falciparum strain 3D7
# experimentSummary: Plasmodium falciparum growth inhibition, SYBR green fluorescence
# Format: cell-based
# setupConditions: 3D7, growth inhibition, read-out: Pf (3D7) EC50
Exercise: for every item that follows, state its recorded log10 of EC50.
The figures below represent log10 of EC50, where EC50 is stated in µM.

What value of log10 of EC50 has been reported for the following molecule? `Cn1nc(C(F)(F)F)c(-c2cccc(CCO)c2)c1NC(=O)Nc1ccc(F)cc1` 0.60

What value of log10 of EC50 has been reported for the following molecule? `Cn1nc(C(F)(F)F)c(-c2ccccc2CO)c1NC(=O)Nc1ccc(F)cc1` 0.90

What value of log10 of EC50 has been reported for the following molecule? `Cn1nc(C(F)(F)F)c(-c2ccc(F)cc2)c1NC(=O)Nc1cccc(F)c1` -0.46

What value of log10 of EC50 has been reported for the following molecule? `Cn1nc(C(F)(F)F)cc1NC(=O)Nc1ccc(F)cc1` 1.66

What value of log10 of EC50 has been reported for the following molecule? `Cn1nc(CCN2CCOCC2)c(-c2ccc(F)cc2)c1NC(=O)Nc1ccc(F)cc1` 1.00

What value of log10 of EC50 has been reported for the following molecule? `Cn1nc(C(F)(F)F)c(-c2ccc(F)cc2)c1NC(=O)Nc1ccc(F)cc1` -0.22

What value of log10 of EC50 has been reported for the following molecule? `Cn1ncc(-c2ccc(F)cc2)c1NC(=O)Nc1ccc(F)cc1` 1.43

---

# measuredOn: PfProRS (Plasmodium falciparum)
# Construct: B2, AA7–746 (minus 6 amino acids, or 99% of the ORF); made in house; host or cells: E. coli BL21(DE3)R3 Rosetta Oxford
# experimentSummary: ATP consumption assay with proline or ATP varied (competition)
# Type: biochemical
# setupConditions: TCMDC-124506 IC50 as a function of ATP, ATP=3 M
resultType: pIC50
pIC50 (log units): -log10 of the concentration in mol/L.

What value of pIC50 has been reported for the following molecule? `Cn1nc(C(F)(F)F)c(-c2ccc(F)cc2)c1NC(=O)Nc1ccc(F)cc1` 4.13

---

# measuredOn: PfProRS (Plasmodium falciparum, UniProt Q8I5R7)
# Construct: B2, AA7–746 (minus 6 amino acids, or 99% of the ORF); made in house; host or cells: E. coli BL21(DE3)R3 Rosetta Oxford
# Sequence (Q8I5R7 7-746): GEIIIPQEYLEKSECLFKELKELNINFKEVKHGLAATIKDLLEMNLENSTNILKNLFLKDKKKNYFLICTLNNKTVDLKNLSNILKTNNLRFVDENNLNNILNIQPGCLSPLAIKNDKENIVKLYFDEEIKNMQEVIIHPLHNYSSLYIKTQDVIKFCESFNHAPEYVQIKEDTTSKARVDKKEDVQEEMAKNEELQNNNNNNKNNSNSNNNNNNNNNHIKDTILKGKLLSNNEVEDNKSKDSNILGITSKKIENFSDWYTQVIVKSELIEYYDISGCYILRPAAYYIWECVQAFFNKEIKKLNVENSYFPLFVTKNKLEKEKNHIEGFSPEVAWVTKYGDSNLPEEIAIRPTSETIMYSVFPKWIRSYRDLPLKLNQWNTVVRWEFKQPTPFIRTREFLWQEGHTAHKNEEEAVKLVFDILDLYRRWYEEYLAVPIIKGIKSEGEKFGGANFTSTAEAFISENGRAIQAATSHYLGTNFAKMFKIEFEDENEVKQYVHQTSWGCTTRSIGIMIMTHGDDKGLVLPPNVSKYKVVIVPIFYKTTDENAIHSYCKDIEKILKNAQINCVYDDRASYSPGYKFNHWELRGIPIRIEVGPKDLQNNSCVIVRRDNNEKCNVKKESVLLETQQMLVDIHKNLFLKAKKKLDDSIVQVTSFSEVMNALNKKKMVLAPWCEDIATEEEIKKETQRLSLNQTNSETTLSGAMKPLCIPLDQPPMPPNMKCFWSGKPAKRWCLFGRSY
# experimentSummary: ATP consumption assay with proline or ATP varied (competition)
# Assay type: biochemical
# setupConditions: Ki (Cheng-Prusoff, competition with proline), intercept of IC50 vs [Proline]
resultType: Ki (µM)
Give the number; µM is assumed, so skip it.

What value of Ki has been reported for the following compound? `Cn1nc(C(F)(F)F)c(-c2ccc(F)cc2)c1NC(=O)Nc1ccc(F)cc1` 80
